# TESTED_ON: human mAChR M1 (Homo sapiens, UniProt P11229)
# Construct: host or cells: CHO-K1 cells (ATCC), stably transfected using Lipofectamine2000
# TEST_METHOD_NOTES: mAChR M1 cell-based functional assay (calcium mobilization), agonist activity upon compound addition
# MEASUREMENT_CONTEXT: CHO-K1 cells expressing hM1; relative to the maximum for acetylcholine
For each of the compounds below, state its Emax.

Cn1cc2c(-c3cc(F)c(Cn4cc(C(=O)N[C@H]5CCCC[C@@H]5O)c5sccc5c4=O)c(F)c3)cccc2n1	< 5%
Cn1cc(-c2ccc(Cn3cc(C(=O)N[C@H]4CCC[C@@H]4O)c4occc4c3=O)c(F)c2)cn1	< 5%
Cc1cccc(-c2cc(F)c(Cn3cc(C(=O)N[C@H]4CCOC[C@@H]4O)c4ncccc4c3=O)c(F)c2)c1	< 5%
O=C(N[C@H]1CCCC[C@@H]1O)c1cn(Cc2ccc(-n3cccn3)cc2)c(=O)c2ccoc12	< 5%
Cn1ccc(-c2ccc(Cn3cc(C(=O)N[C@H]4CCOC[C@@H]4O)c4nccn4c3=O)c(F)c2)n1	55%
Cn1cc2c(-c3cc(F)c(Cn4cc(C(=O)N[C@H]5CC[C@@H]5O)c5nccnc5c4=O)c(F)c3)cccc2n1	< 5%
Cn1cc2c(-c3cc(F)c(Cn4cc(C(=O)N[C@H]5CCCCC[C@@H]5O)c5nccnc5c4=O)c(F)c3)cccc2n1	46%

*Q* Quick check: Emax on human mAChR M1 (Homo sapiens, UniProt P11229), item O=C(N[C@H]1CCOC[C@@H]1O)c1cn(Cc2c(F)cc(-c3ccns3)cc2F)c(=O)c2cccnc12 ?
*A* < 5%

====

# TESTED_ON: human mAChR M1 (Homo sapiens, UniProt P11229)
# Construct: host or cells: CHO-K1 cells (ATCC), stably transfected using Lipofectamine2000
# TEST_METHOD_NOTES: mAChR M1 cell-based functional assay (calcium mobilization), PAM activity: increase in the EC20 acetylcholine response
# MEASUREMENT_CONTEXT: CHO-K1 cells expressing hM1; potentiation of EC20 acetylcholine response
pEC50: −log10 of the molar value.
REPORTED_METRIC: pEC50

// solved cases for pEC50 follow
Cn1cc(-c2ccc(Cn3cc(C(=O)N[C@H]4CCC[C@@H]4O)c4occc4c3=O)c(F)c2)cn1	< 5.00
O=C(N[C@H]1CCOC[C@@H]1O)c1cn(Cc2ccc(-n3cccn3)cc2)c(=O)c2nccnc12	≤ 5.00
Cn1cc(-c2ccc(Cn3cc(C(=O)N[C@H]4CCOC[C@@H]4O)c4sccc4c3=O)c(F)c2)cn1	< 5.00

Next molecule, please.
*Q* Bench note: what pEC50 did Cn1cc(-c2ccc(Cn3cc(C(=O)N[C@@H]4CC[C@H]4O)c4occc4c3=O)c(F)c2)cn1 (stereo in doubt) show?
*A* < 5.00

====

# TESTED_ON: human mAChR M1 (Homo sapiens, UniProt P11229)
# Construct: host or cells: CHO-K1 cells (ATCC), stably transfected using Lipofectamine2000
# TEST_METHOD_NOTES: mAChR M1 cell-based functional assay (calcium mobilization), PAM activity: increase in the EC20 acetylcholine response
# MEASUREMENT_CONTEXT: CHO-K1 cells expressing hM1; potentiation of EC20 acetylcholine response
REPORTED_METRIC: EC50

Cn1ccc(-c2ccc(Cn3cc(C(=O)N[C@H]4CCOC[C@@H]4O)c4occc4c3=O)c(F)c2)n1	> 10 µM
CC[C@H](C)[C@@H](CO)NC(=O)c1cn(Cc2ccc(-c3cnn(C)c3)cc2F)c(=O)c2nccnc12	≥ 10 µM

*Q* Provide the documented EC50 with human mAChR M1 (Homo sapiens, UniProt P11229) as the system for Cn1cc2c(-c3cc(F)c(Cn4cc(C(=O)NCC5CCCO5)c5occc5c4=O)c(F)c3)cccc2n1 (stereo not drawn)
*A* > 10 µM

====

# TESTED_ON: human mAChR M1 (Homo sapiens)
# Construct: host or cells: CHO-K1 cells (ATCC), stably transfected using Lipofectamine2000
# TEST_METHOD_NOTES: mAChR M1 cell-based functional assay (calcium mobilization), PAM activity: increase in the EC20 acetylcholine response
# MEASUREMENT_CONTEXT: CHO-K1 cells expressing hM1; potentiation of EC20 acetylcholine response
Classification by EC50 | ranges: bin 0 (below 1000 nM), bin 1 (1000 nM to below 2000 nM), bin 2 (2000 nM or more)

Here are 3 compounds together with their reported answers.
Cn1cc2c(-c3cc(F)c(Cn4cc(C(=O)N[C@H]5CCCC[C@@H]5O)c5ncncc5c4=O)c(F)c3)cccc2n1	bin 2
Cc1cc(C)cc(-c2cc(F)c(Cn3cc(C(=O)N[C@H]4CCOC[C@@H]4O)c4ncccc4c3=O)c(F)c2)c1	bin 2
O=C(N[C@H]1CCCC[C@@H]1O)c1cn(Cc2ccc(-n3cccn3)cc2)c(=O)c2cccnc12	bin 1

Note: attention shifts to another entry.
*Q* Bin this entry: Cc1cc(-c2ccc(Cn3cc(C(=O)N[C@H]4CCC[C@@H]4O)c4ncccc4c3=O)c(F)c2)ccn1
*A* bin 1

====

# TESTED_ON: human mAChR M1 (Homo sapiens, UniProt P11229)
# Construct: host or cells: CHO-K1 cells (ATCC), stably transfected using Lipofectamine2000
# TEST_METHOD_NOTES: mAChR M1 cell-based functional assay (calcium mobilization), PAM activity: increase in the EC20 acetylcholine response
# MEASUREMENT_CONTEXT: CHO-K1 cells expressing hM1; potentiation of EC20 acetylcholine response
Consider the following compounds; for each one, report its pEC50.
Numbers only, as −log10 of the molar value.

Lab note: each compound below needs its pEC50 filled in.
1. Cn1cc2c(-c3cc(F)c(Cn4cc(C(=O)NCC(O)C(F)(F)F)c5nccnc5c4=O)c(F)c3)cccc2n1 (stereo not drawn) [Compound A74]
2. O=C(N[C@H]1CCCC[C@@H]1O)c1cn(Cc2ccc(-n3cccn3)cc2)c(=O)c2nccnc12 [Compound A53]
3. Cn1ccc(-c2ccc(Cn3cc(C(=O)N[C@@H]4CC[C@H]4O)c4ncccc4c3=O)c(F)c2)n1 [Compound A4]
4. Cn1ccc(-c2ccc(Cn3cc(C(=O)N[C@H]4CCC[C@@H]4O)c4ncccc4c3=O)c(F)c2)n1 [Compound A3]
5. Cn1cc2c(-c3cc(F)c(Cn4cc(C(=O)N[C@H]5CCC[C@@H]5O)c5nccn5c4=O)c(F)c3)cccc2n1 [Compound B21]
6. Cc1cn2c(=O)n(Cc3c(F)cc(-c4cccc5nn(C)cc45)cc3F)cc(C(=O)N[C@H]3CCOC[C@@H]3O)c2n1 [Compound B29]

*A*
1. 5.42
2. 5.02
3. 5.46
4. 5.78
5. 6.05
6. 5.37

Count: 2. Required value per item: pEC50.
1. O=C(N[C@H]1CCCC[C@@H]1O)c1cn(Cc2ccc(-n3cccn3)cc2)c(=O)c2ccoc12 [Compound D3]
2. Cn1cc2c(-c3cc(F)c(Cn4cc(C(=O)NC5CCOCC5)c5occc5c4=O)c(F)c3)cccc2n1 [Compound D23]

*A*
1: 5.29; 2: 5.39

====

Would you mind telling me the reported EC50 of each entry?
# TESTED_ON: human mAChR M1 (Homo sapiens, UniProt P11229)
# Construct: host or cells: CHO-K1 cells (ATCC), stably transfected using Lipofectamine2000
# Sequence (P11229 1-460): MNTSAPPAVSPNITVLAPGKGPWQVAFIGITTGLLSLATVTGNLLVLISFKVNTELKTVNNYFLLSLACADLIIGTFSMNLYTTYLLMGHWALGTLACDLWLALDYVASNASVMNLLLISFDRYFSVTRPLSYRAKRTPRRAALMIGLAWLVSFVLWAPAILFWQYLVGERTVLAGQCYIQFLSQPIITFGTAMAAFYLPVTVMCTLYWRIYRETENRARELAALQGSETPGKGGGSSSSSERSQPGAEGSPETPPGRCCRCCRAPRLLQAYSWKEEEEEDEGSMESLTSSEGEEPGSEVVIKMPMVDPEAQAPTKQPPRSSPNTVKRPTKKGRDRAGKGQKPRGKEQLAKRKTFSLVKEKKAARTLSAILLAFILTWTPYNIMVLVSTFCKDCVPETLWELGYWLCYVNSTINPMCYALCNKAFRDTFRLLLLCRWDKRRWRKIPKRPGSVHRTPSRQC
# TEST_METHOD_NOTES: mAChR M1 cell-based functional assay (calcium mobilization), PAM activity: increase in the EC20 acetylcholine response
# MEASUREMENT_CONTEXT: CHO-K1 cells expressing hM1; potentiation of EC20 acetylcholine response
One number for each entry, in µM.

Hi, could you look up EC50 for each item in my list?
1. Cn1cc(-c2ccc(Cn3cc(C(=O)N[C@H]4CCCCC[C@@H]4O)c4occc4c3=O)c(F)c2)cn1
2. Cc1cc(-c2cc(F)c(Cn3cc(C(=O)N[C@H]4CCC[C@@H]4O)c4ncccc4c3=O)c(F)c2)ccn1

*A*
[2.02, 0.57]

All figures here come from patent US20220041606A1.
